- System: Pseudomonas aeruginosa
- assay overview: Antibacterial activity against Pseudomonas aeruginosa ATCC 9027 at 50 to 100 ug/ml by cup-plate method
- Assay type: functional
# key: entry, value: Activity
Number in %, nothing else.

Would you please look over these solved cases?
>>> df
                                   compound  data_value
0  O=c1c2cc(Br)ccc2nc(Cc2ccccc2Nc2c(Cl)cccc2Cl)n1-c1ccc(/N=C/c2ccccc2Cl)cc1       44.44
1  O=C1C(Cl)C(c2cccc([N+](=O)[O-])c2)N1c1ccc(-n2c(Cc3ccccc3Nc3c(Cl)cccc3Cl)nc3ccc(Br)cc3c2=O)cc1 (configuration not stated)       36.75
2  O=C1C(Cl)C(c2ccc(Cl)cc2)N1c1ccc(-n2c(Cc3ccccc3Nc3c(Cl)cccc3Cl)nc3ccc(Br)cc3c2=O)cc1 (configuration not stated)       61.79
3  CN(C)c1ccc(/C=N/c2ccc(-n3c(Cc4ccccc4Nc4c(Cl)cccc4Cl)nc4ccc(Br)cc4c3=O)cc2)cc1           0
4  COc1cc(C2C(Cl)C(=O)N2c2ccc(-n3c(Cc4ccccc4Nc4c(Cl)cccc4Cl)nc4ccc(Br)cc4c3=O)cc2)cc(OC)c1OC (configuration not stated)       58.33
5  CN(C)c1ccc(C2C(Cl)C(=O)N2c2ccc(-n3c(Cc4ccccc4Nc4c(Cl)cccc4Cl)nc4ccc(Br)cc4c3=O)cc2)cc1 (configuration not stated)           0

Prompt: Returns the measured Activity for the input compound. Input: O=C1C(Cl)C(c2ccccc2[N+](=O)[O-])N1c1ccc(-n2c(Cc3ccccc3Nc3c(Cl)cccc3Cl)nc3ccc(Br)cc3c2=O)cc1 (configuration not stated)
Completion: 46.93
